# growth annotations
System: HL-60(TB) leukemia
Assay: NCI-60 one-dose screen, 48 h (100 = growth as untreated, 0 = no growth, -100 = all killed)
Conditions: 10 µM unless noted
About 83,000 compounds went through this panel and 20% of them were active in at least one assay; those are over-represented in the sample as a whole.
Please give a number only; it is taken to be in %.

// known answers, use as guide
Clc1ccccc1Nc1nnc(-c2ccncc2)s1: 79.1
O=c1[nH]c(CN2CCN(c3ccccc3F)CC2)nc2sc3c(c12)CCC3: 116
O=[N+]([O-])c1cc([N+](=O)[O-])c(N2CCCC2)cc1NN=C(c1ccc(O)cc1)c1ccc(O)cc1: 122
O=C(/C=C/C12c3ccccc3C(c3ccccc31)C1C(=O)NC(=O)C12)c1cccs1 (centres undefined): 6.95

Give the reported growth for this compound. C/C(=C/CCC(C)[C@@H]1CC[C@]2(C)C3=C(CC[C@@]12C)[C@@]1(C)CCC(=O)C(C)(C)[C@@H]1CC3)C(=O)O (some centres undefined)
-58.8

Supply reported growth belonging to this compound: CC(=O)O[C@H]1CC[C@@]2(C)[C@@H](CC[C@@H]3[C@@H]2CC(=O)[C@@]2(C)[C@H]3C[C@@H](C3CCCC3=O)[C@@H]2C(C)=O)C1 (some centres undefined)
51.8

Quick one: give measured growth for CCOC(=O)CC1CSC(N/N=C/c2ccc(-n3cccn3)cc2)=N1 (centres undefined)
94

Please report the measured growth for COc1cc(OC)cc(-c2ccc(-c3ccc(C(=N)N)cc3)s2)c1
-57.8

Specify reported growth for the compound shown: Nc1cc(C(=O)O)[nH]c(=S)n1
123

In one line, give reported growth of the entry CCCCCCCCCCCCCC[n+]1ccccc1 .
-70.3

Give the value of growth reported for the following: CC(=O)OCCCCCNc1ccccc1
76.3

Give recorded growth. CCN(CC)Cc1cc(Nc2ccnc3cc(Cl)ccc23)ccc1OC
86

Answer with the recorded growth for the compound listed here: CC(=O)OCC1OC(OC2=C(CC=C(Cl)Cl)C(=O)c3ccccc3C2=O)C(OC(C)=O)C(OC(C)=O)C1OC(C)=O (centres undefined)
0.376

Tell me its growth given C=C(C)[C@@H]1CC[C@]2(C(=O)N3CCN(C)CC3)CC[C@]3(C)[C@H](CC[C@@H]4[C@@](C)(CCC(=O)O)[C@H](C(=C)C)CC[C@]43C)[C@@H]12 as the entry.
82.5

Origin of values: PubChem BioAssay (NCI)
